# z-score per entry
assay: S. cerevisiae RM11-1a growth modifiers, primary screen, strain RM11-1a, OD600, basal, 24 h (AID 1177); conditions: OD600, 24 h, higher = more signal, called active from +8 up or from −8 down;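 also: cultures grown under basal conditions with no added stressor; test concentration not given here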

{"SMILES_DATA": "CC(CCN1CCc2nc(-c3ccccc3)c(-c3ccccc3)cc2C1)=NO[C@H](C)c1cn([C@H](CO)Cc2ccccc2)nn1", "z-score": -0.222}
{"SMILES_DATA": "COCOc1ccc(Br)cc1C(=O)C=Cc1ccc2c(c1)OCO2", "z-score": 0.616}
{"SMILES_DATA": "CO[C@@H]1C=CCC(=O)N[C@@H](C)C(=O)OC[C@@H](OC)[C@H](C)C=CCC(=O)OC[C@H]1C", "z-score": -0.718}
{"SMILES_DATA": "CO[C@@H]1C=CCC(=O)N[C@@H](C)C(=O)OC[C@@H](NS(=O)(=O)c2ccc(C)cc2)[C@H](C)C=CCC(=O)OC[C@H]1C", "z-score": -0.876}

###

experiment: PSAC antagonists in infected red cells, primary screen, cell-based, P. falciparum Indochina, OD700, 2 h (AID 1155);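 also: lysis reports solute entry through the parasite surface anion channel PSAC; channel blockers reduce lysis of infected cells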; details: P. falciparum Indochina infected erythrocytes, osmotic lysis OD700; higher = more signal, called active from +8 up or from −8 down
Assign class by z-score: not lower than 0.2 means 1 (yes); lower than 0.2 means 0 (no).

{"COMPOUND": "CCOC(=O)[C@H](Cc1ccccc1)NC(=O)CCC1CC(OC(=O)NCc2ccc3c(c2)OCO3)CC2(CCCC(COC(=O)NCCOc3ccccc3)O2)O1 (stereo partly specified)", "GROUP_LABEL": "0 (no)"}
{"COMPOUND": "CN1CCc2nc(-c3ccccc3)c(-c3ccccc3)cc2C1", "GROUP_LABEL": "0 (no)"}
{"COMPOUND": "CC(CCC(=O)OC[C@H]1O[C@H](C#Cc2ccccc2)C=C[C@@H]1Oc1ccc(C)cc1)=NOC(C)CN1CCCCc2nc(C)c(C)cc21 (stereo partly specified)", "GROUP_LABEL": "1 (yes)"}
{"COMPOUND": "CCOC(=O)[C@H](Cc1ccccc1)NC(=O)CCC1CC(OC(=O)NCc2cccc3ccccc23)CC2(CCCC(COC(=O)NCc3ccc4c(c3)OCO4)O2)O1 (stereo partly specified)", "GROUP_LABEL": "0 (no)"}
{"COMPOUND": "CC(CCN1CCCc2nc(C)c(C)cc21)=NOC[C@@H](C)[C@H](OCc1ccccc1)C(C)C", "GROUP_LABEL": "0 (no)"}
{"COMPOUND": "CCOC(=O)[C@H](Cc1ccccc1)NC(=O)CCC1CC(OC(=O)NCc2ccc3c(c2)OCO3)CC2(CCCC(COC(=O)NCCOC)O2)O1 (stereo partly specified)", "GROUP_LABEL": "0 (no)"}
{"COMPOUND": "CCOC(=O)CCN1C(=O)[C@H]2[C@H]3[C@H](O)[C@H](O)CC(=NOCC(C)C)[C@@H]3CC[C@H]2C1=O", "GROUP_LABEL": "1 (yes)"}
{"COMPOUND": "CC(=O)OC[C@H]1O[C@H](CC=NOC[C@@H](O)[C@H]2O[C@@H]3OC(C)(C)O[C@@H]3[C@H]2O)C=C[C@@H]1OC(C)=O", "GROUP_LABEL": "1 (yes)"}
{"COMPOUND": "O=C1C[C@@H](O)[C@@H](O)[C@@H]2[C@@H]3C(=O)N(Cc4ccccc4)C(=O)[C@@H]3CC[C@H]12", "GROUP_LABEL": "1 (yes)"}
{"COMPOUND": "Cc1ccc2[nH]c3nc(CCCn4ccnc4-c4ccccc4)nnc3c2c1", "GROUP_LABEL": "1 (yes)"}
{"COMPOUND": "O=C1CCCC=C1C(O)c1ccc([N+](=O)[O-])cc1 (stereo unspecified)", "GROUP_LABEL": "0 (no)"}
{"COMPOUND": "O=C1[C@H]2[C@H]3[C@H](O)[C@H](O)CC(=NO[C@@H]4O[C@H](CO)[C@@H](O)[C@H](O)[C@H]4O)[C@@H]3CC[C@H]2C(=O)N1C1CCCCC1", "GROUP_LABEL": "1 (yes)"}
{"COMPOUND": "CCOC(=O)[C@H](CC(C)C)NC(=O)CCC1CC(OC(=O)NCc2ccc3c(c2)OCO3)CC2(CCCC(COC(=O)NCCOc3ccccc3)O2)O1 (stereo partly specified)", "GROUP_LABEL": "0 (no)"}
{"COMPOUND": "COc1ccc(OC[C@H]2CN3[C@@H](CC[C@@H](C)[C@@H]3c3ccc(Br)cc3)C(=O)O2)cc1", "GROUP_LABEL": "1 (yes)"}
{"COMPOUND": "COc1ccc2c(c1)O[C@@H](c1cccc(C(F)(F)F)c1)[C@H](O)C2=O", "GROUP_LABEL": "0 (no)"}
{"COMPOUND": "CCN1C(=O)[C@H]2[C@H]3[C@H](O)[C@H](O)CC(=NOC[C@@H](O)COCc4ccco4)[C@H]3CC[C@H]2C1=O", "GROUP_LABEL": "0 (no)"}
